System: A498 renal
Test: NCI tumour cell line growth inhibition, 48 h

>  <Molecule>
O=C1c2ccccc2C(=O)c2c1c(NCCNCCO)c1cc[nH]c1c2NCCNCCO

>  <Assay system>
A498 renal

>  <GI50>
8090 nM

$$$$
>  <Molecule>
COc1cc(C)c(N(C)C(=O)CN(C)C)cc1Nc1nc(Nc2cccc(F)c2C(N)=O)c2cc[nH]c2n1

>  <Assay system>
A498 renal

>  <GI50>
> 13900 nM

$$$$
>  <Molecule>
Cc1cc2cc(Oc3ccnc(Nc4cccc(CS(=O)(=O)NCCN(C)C)c4)n3)ccc2[nH]1

>  <Assay system>
A498 renal

>  <GI50>
1040 nM

$$$$
>  <Molecule>
Cc1ccc(NCCN(C)CC(C)O)c2c(=O)c3ccc(Cl)cc3sc12 (stereo not given)

>  <Assay system>
A498 renal

>  <GI50>
2310 nM

$$$$
>  <Molecule>
CCCCCCCCCCCCCCCC[N+](C)(C)C

>  <Assay system>
A498 renal

>  <GI50>
1960 nM

$$$$
